Measured on: T1, Fus1, P11710
T1 sequence (P11710 432-512, looked up): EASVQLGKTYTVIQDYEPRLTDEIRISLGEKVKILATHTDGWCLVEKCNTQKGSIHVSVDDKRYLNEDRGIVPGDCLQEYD
Assay comment: SPOT array
Condition description: median of control spots 1200
# note: boundary value 2 maps to FALSE; SPOT intensity below it maps to TRUE

hey, is SPOT intensity for EQEEIAPSLPSRNSI lower than 2 or not? TRUE

hey, is SPOT intensity for KNRKNLPTIPIRLSG lower than 2 or not? FALSE

hey, is SPOT intensity for HPRFVSPRIPSRIVK lower than 2 or not? TRUE

hey, is SPOT intensity for KKAPPPVVKPKPRNF lower than 2 or not? TRUE

hey, is SPOT intensity for AKDLIVPRRPEWNEG lower than 2 or not? FALSE

hey, is SPOT intensity for RRLRDKYKLPIVDAD lower than 2 or not? FALSE
